Entry source: PubChem BioAssay (NCATS)

measurement_description: Viability qHTS for spleen associated tyrosine kinase inhibitor (SYKi) drug resistant MV4-11 cells (AID 1963824); note: nearly all actives have a fitted effect of over 35% in size
measurement_parameters: SYKi-resistant MV4-11 viability, CellTiter-Glo, 72 h; series mostly up to 45 µM
Records with an inconclusive call do not appear. The source made the active and inactive calls. Calls come from the whole dose curve; as a rule, active = well fitted cell-killing curve with a large enough effect; inconclusive = small, poorly fitted or top-dose-only effect, or effect the other way; inactive = no such curve, though single readings can be large or run the other way.
Result category, one only: class 1 (active), class 0 (inactive)

compound	category_label
C/C(=C\CCC(C)C1=CCC2(C)OC3=C(CC12)C(=O)C(O)CC3)CO (stereo not given)	class 0

Query: Could you check what this test reported for CC1(C(=O)O)CCC2(C)CCC3(C)C(=CC(=O)C4C5(C)CCC(OC6OC(C(=O)O)C(O)C(O)C6OC6OC(C(=O)O)C(O)C(O)C6O)C(C)(C)C5CCC43C)C2C1 (stereo not given) ?
Response: class 0

Query: Could you check what this test reported for COc1cc2c(cc1OC)CC(=O)N(CCCN(C)C[C@H]1Cc3cc(OC)c(OC)cc31)CC2 ?
Response: class 0

Query: Could you check what this test reported for C[C@H](O)C(=O)Nc1c(I)c(C(=O)NC(CO)CO)c(I)c(C(=O)NC(CO)CO)c1I ?
Response: class 0
